Consider compounds characterized by their AC50 with Motilin receptor (Homo sapiens, UniProt O43193).
Sequence (O43193 whole entry): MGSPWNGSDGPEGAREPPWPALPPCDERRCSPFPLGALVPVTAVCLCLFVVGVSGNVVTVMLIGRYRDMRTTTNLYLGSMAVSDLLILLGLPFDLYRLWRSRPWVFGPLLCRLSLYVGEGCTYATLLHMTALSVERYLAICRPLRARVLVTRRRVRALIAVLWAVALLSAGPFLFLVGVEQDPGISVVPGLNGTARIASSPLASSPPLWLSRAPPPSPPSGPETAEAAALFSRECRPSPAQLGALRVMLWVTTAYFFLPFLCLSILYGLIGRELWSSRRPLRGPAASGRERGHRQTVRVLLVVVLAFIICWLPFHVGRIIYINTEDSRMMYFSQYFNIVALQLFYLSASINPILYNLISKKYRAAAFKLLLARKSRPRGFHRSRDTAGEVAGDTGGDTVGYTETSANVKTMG

Examples with their reported AC50 follow.
Problem: Please indicate AC50 recorded for C[C@]12C=CC(=O)N[C@@H]1CC[C@@H]1[C@@H]2CC[C@]2(C)[C@@H](C(=O)Nc3cc(C(F)(F)F)ccc3C(F)(F)F)CC[C@@H]12 [DUTASTERIDE]
Solution: > 10 µM

Problem: Please indicate AC50 recorded for C[N@+]1(CCF)[C@@H]2CC[C@H]1C[C@@H](OC(=O)C(O)(c1ccccc1)c1ccccc1)C2
Solution: > 30 µM

Continuing:
Problem: Please indicate AC50 recorded for Clc1ccc(C(Cn2ccnc2)OCc2ccsc2Cl)c(Cl)c1 (centres undefined)
Solution: > 30 µM

Problem: Please indicate AC50 recorded for CCOC(=O)C1=C[C@]2(CC)CCCN3CCc4c(n1c1ccccc41)[C@@H]32
Solution: > 30 µM

====

Consider compounds characterized by their AC50 with Alpha-2B adrenergic receptor (Homo sapiens).
Sequence (P18089 whole entry): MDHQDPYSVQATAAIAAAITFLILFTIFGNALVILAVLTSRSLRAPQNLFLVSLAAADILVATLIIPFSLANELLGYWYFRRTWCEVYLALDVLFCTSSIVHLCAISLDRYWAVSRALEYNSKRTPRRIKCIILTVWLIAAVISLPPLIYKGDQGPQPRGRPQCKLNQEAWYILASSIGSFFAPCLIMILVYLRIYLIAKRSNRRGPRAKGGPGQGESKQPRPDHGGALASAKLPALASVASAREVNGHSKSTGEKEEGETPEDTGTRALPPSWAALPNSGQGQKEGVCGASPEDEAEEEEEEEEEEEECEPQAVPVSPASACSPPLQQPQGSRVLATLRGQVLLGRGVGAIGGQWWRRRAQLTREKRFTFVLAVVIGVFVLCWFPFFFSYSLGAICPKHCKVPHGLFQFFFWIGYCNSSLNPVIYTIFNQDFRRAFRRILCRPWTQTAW

Examples with their reported AC50 follow.
Problem: Recall the reported AC50 of COc1cc2c(cc1OC)C(CCc1ccc(Cl)cc1)N(C)CC2 (configuration not stated) [METHOPHOLINE] when tested on Alpha-2B adrenergic receptor (Homo sapiens). Further: assay procedure not described here.
Solution: > 10 µM

Problem: Recall the reported AC50 of OCc1cc(C(O)CNCCCCCCOCCCCc2ccccc2)ccc1O (configuration not stated) [SALMETEROL] when tested on Alpha-2B adrenergic receptor (Homo sapiens). Further: assay procedure not described here.
Solution: 13 µM

Problem: Recall the reported AC50 of C[C@H](CCC(=O)O)[C@H]1CC[C@H]2[C@@H]3[C@@H](O)C[C@@H]4C[C@H](O)CC[C@]4(C)[C@H]3CC[C@]12C [URSODIOL] when tested on Alpha-2B adrenergic receptor (Homo sapiens). Further: assay procedure not described here.
Solution: > 30 µM

Problem: Recall the reported AC50 of CC(N)C(O)c1ccccc1 (configuration not stated) [PHENYLPROPANOLAMINE] when tested on Alpha-2B adrenergic receptor (Homo sapiens). Further: assay procedure not described here.
Solution: > 10 µM

Problem: Recall the reported AC50 of Oc1ccc2c(c1)CC[C@H](c1ccccc1)[C@@H]2c1ccc(OCCN2CCCC2)cc1 [LASOFOXIFENE] when tested on Alpha-2B adrenergic receptor (Homo sapiens). Further: assay procedure not described here.
Solution: 8.2 µM

Problem: Recall the reported AC50 of CCC[C@H](NC(=O)[C@@H]1[C@H]2CCC[C@H]2CN1C(=O)[C@@H](NC(=O)[C@@H](NC(=O)c1cnccn1)C1CCCCC1)C(C)(C)C)C(=O)C(=O)NC1CC1 when tested on Alpha-2B adrenergic receptor (Homo sapiens). Further: assay procedure not described here.
Solution: > 10 µM

Continuing:
Problem: Recall the reported AC50 of CCCCC(=O)O[C@]1(C(=O)CO)[C@@H](C)C[C@H]2[C@@H]3CCC4=CC(=O)C=C[C@]4(C)[C@@]3(F)[C@@H](O)C[C@@]21C [BETAMETHASONE VALERATE] when tested on Alpha-2B adrenergic receptor (Homo sapiens). Further: assay procedure not described here.
Solution: > 10 µM

Problem: Recall the reported AC50 of CN(C)CCCNc1c2ccccc2nc2cccc([N+](=O)[O-])c12 [NITRACRINE] when tested on Alpha-2B adrenergic receptor (Homo sapiens). Further: assay procedure not described here.
Solution: 22 µM

Problem: Recall the reported AC50 of CCN1CCN(Cc2ccc(Nc3ncc(F)c(-c4cc(F)c5nc(C)n(C(C)C)c5c4)n3)nc2)CC1 [ABEMACICLIB] when tested on Alpha-2B adrenergic receptor (Homo sapiens). Further: assay procedure not described here.
Solution: > 30 µM

====

Consider compounds characterized by their AC50 with D(3) dopamine receptor (Homo sapiens, UniProt P35462).
Sequence (P35462 whole entry): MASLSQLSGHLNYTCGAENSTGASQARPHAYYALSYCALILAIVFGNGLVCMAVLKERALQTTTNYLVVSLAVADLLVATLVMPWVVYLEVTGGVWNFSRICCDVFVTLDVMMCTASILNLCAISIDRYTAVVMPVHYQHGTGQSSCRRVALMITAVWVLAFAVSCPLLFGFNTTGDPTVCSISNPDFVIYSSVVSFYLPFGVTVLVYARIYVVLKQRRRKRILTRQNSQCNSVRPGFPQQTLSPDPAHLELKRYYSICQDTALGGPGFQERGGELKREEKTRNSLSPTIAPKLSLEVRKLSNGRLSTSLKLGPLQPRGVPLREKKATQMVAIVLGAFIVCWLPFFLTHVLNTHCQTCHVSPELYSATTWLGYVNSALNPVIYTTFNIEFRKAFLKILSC

Problem: Recall the reported AC50 of Cc1onc(-c2ccccc2)c1C(=O)N[C@@H]1C(=O)N2[C@@H]1SC(C)(C)[C@@H]2C(=O)O [OXACILLIN] when tested on D(3) dopamine receptor (Homo sapiens, UniProt P35462). Further: assay procedure not described here.
Solution: > 30 µM

Problem: Recall the reported AC50 of CC[C@H](C)C[C@H](C)CCCCCCCCC(=O)N[C@H]1C[C@@H](O)[C@@H](NCCN)NC(=O)[C@@H]2[C@@H](O)CCN2C(=O)[C@H]([C@H](O)CCN)NC(=O)[C@H]([C@H](O)[C@@H](O)c2ccc(O)cc2)NC(=O)[C@@H]2C[C@@H](O)CN2C(=O)[C@H]([C@@H](C)O)NC1=O [CASPOFUNGIN] when tested on D(3) dopamine receptor (Homo sapiens, UniProt P35462). Further: assay procedure not described here.
Solution: > 30 µM

Problem: Recall the reported AC50 of CC1=C(/C=C/C(C)=C/C=C/C(C)=C/C(=O)O)C(C)(C)CCC1 [TRETINOIN] when tested on D(3) dopamine receptor (Homo sapiens, UniProt P35462). Further: assay procedure not described here.
Solution: 22.6 µM

Continuing:
Problem: Recall the reported AC50 of c1ccc2c(c1)CCc1ccccc1N2C1CN2CCC1CC2 (configuration not stated) [QUINUPRAMINE] when tested on D(3) dopamine receptor (Homo sapiens, UniProt P35462). Further: assay procedure not described here.
Solution: 6.47 µM

Problem: Recall the reported AC50 of C[C@@H]1C[C@H]2[C@@H]3CCC4=CC(=O)C=C[C@]4(C)[C@@]3(Cl)[C@@H](O)C[C@]2(C)[C@@]1(OC(=O)c1ccco1)C(=O)CCl [MOMETASONE FUROATE] when tested on D(3) dopamine receptor (Homo sapiens, UniProt P35462). Further: assay procedure not described here.
Solution: > 30 µM

Problem: Recall the reported AC50 of CCCc1nc(C(C)(C)O)c(C(=O)O)n1Cc1ccc(-c2ccccc2-c2nnn[nH]2)cc1 [OLMESARTAN] when tested on D(3) dopamine receptor (Homo sapiens, UniProt P35462). Further: assay procedure not described here.
Solution: > 30 µM

Problem: Recall the reported AC50 of CC[C@@]1(O)C(=O)OCc2c1cc1n(c2=O)Cc2cc3c([N+](=O)[O-])cccc3nc2-1 [RUBITECAN] when tested on D(3) dopamine receptor (Homo sapiens, UniProt P35462). Further: assay procedure not described here.
Solution: > 30 µM

====

Consider compounds characterized by their AC50 with Endothelin receptor type B (Homo sapiens, UniProt P24530).
Sequence (P24530 whole entry): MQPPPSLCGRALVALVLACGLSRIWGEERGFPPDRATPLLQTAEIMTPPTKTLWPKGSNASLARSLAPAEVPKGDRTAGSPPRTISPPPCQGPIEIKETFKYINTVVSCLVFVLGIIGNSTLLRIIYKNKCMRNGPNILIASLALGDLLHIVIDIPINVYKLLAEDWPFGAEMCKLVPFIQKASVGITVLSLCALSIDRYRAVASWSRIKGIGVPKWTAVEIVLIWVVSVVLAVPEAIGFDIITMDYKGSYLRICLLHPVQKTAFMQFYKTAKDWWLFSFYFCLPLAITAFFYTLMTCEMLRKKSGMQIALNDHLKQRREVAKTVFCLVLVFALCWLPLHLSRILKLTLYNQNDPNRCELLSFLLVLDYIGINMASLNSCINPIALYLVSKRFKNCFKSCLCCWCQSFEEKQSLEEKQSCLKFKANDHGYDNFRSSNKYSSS

Examples with their reported AC50 follow.
Problem: Recall the reported AC50 of COc1ccccc1OCCNCC(O)COc1cccc2[nH]c3ccccc3c12 (centres undefined) when tested on Endothelin receptor type B (Homo sapiens, UniProt P24530). Further: assay procedure not described here.
Solution: > 30 µM

Problem: Recall the reported AC50 of CO[C@H]1/C=C/O[C@@]2(C)Oc3c(C)c(O)c4c(O)c(c(/C=N/N5CCN(C)CC5)c(O)c4c3C2=O)NC(=O)/C(C)=C\C=C\[C@H](C)[C@H](O)[C@@H](C)[C@@H](O)[C@@H](C)[C@H](OC(C)=O)[C@@H]1C when tested on Endothelin receptor type B (Homo sapiens, UniProt P24530). Further: assay procedure not described here.
Solution: > 30 µM

Problem: Recall the reported AC50 of CC12CC3CC(C)(C1)CC(N)(C3)C2 [MEMANTINE] when tested on Endothelin receptor type B (Homo sapiens, UniProt P24530). Further: assay procedure not described here.
Solution: > 30 µM

Continuing:
Problem: Recall the reported AC50 of CCC(=O)O[C@]1(C(=O)SCF)[C@H](C)C[C@H]2[C@@H]3C[C@H](F)C4=CC(=O)C=C[C@]4(C)[C@@]3(F)[C@@H](O)C[C@@]21C [FLUTICASONE PROPIONATE] when tested on Endothelin receptor type B (Homo sapiens, UniProt P24530). Further: assay procedure not described here.
Solution: > 30 µM

====

Target protein (sequence): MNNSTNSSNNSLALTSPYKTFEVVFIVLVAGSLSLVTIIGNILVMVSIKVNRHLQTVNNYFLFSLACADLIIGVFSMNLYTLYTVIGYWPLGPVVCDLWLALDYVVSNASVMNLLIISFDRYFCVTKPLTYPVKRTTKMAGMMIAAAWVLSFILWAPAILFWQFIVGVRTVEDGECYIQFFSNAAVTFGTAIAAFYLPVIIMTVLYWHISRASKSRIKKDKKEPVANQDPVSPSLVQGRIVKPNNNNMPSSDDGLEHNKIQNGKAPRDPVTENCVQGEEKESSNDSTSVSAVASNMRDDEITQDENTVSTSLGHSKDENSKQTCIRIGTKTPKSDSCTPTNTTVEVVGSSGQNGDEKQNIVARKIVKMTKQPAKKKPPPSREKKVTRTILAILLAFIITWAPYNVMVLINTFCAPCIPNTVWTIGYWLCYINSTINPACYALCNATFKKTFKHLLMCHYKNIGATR
MEASUREMENT_KIND: AC50

Problem: Please indicate AC50 recorded for COc1cc2nc(N3CCN(C(=O)C4CCCO4)CC3)nc(N)c2cc1OC (centres undefined)
Solution: > 10 µM

Problem: Please indicate AC50 recorded for Cn1c(=O)cc(N2CCC[C@@H](N)C2)n(Cc2ccccc2C#N)c1=O
Solution: > 10 µM

Problem: Please indicate AC50 recorded for CCCC(CCC)C(=O)O
Solution: > 10 µM

Here is the next item to consider.
Problem: Please indicate AC50 recorded for CCC[C@H](NC(=O)[C@@H]1[C@H]2CCC[C@H]2CN1C(=O)[C@@H](NC(=O)[C@@H](NC(=O)c1cnccn1)C1CCCCC1)C(C)(C)C)C(=O)C(=O)NC1CC1
Solution: > 10 µM
